Reported melting point values follow for various compounds

INSERT INTO measurements (compound, val) VALUES
  ('COC(=O)OC [dimethyl_carbonate]', '3 °C');

Given item CNC(=S)NCO , the value recorded as its melting point is 88 °C

Given item Cc1c(C(=O)O)cnn1-c1ccccc1 , the value recorded as its melting point is 168 °C

Given item COc1ccc(N=C=S)c([N+](=O)[O-])c1 [4-methoxy-2-nitrophenyl isothiocyanate] , the value recorded as its melting point is 92 °C

Given item O=S(=O)(O)C(F)(F)F , the value recorded as its melting point is -40 °C

* * *

QUANTITY: melting point (°C)
Reply numerically in °C, unit not repeated.

Consider the following illustrative entries.
INSERT INTO assay_data (compound, val) VALUES
  ('CCCC(C)C1(CC)C(=O)NC(=O)NC1=O (centres undefined)', 130),
  ('N#Cc1ccccc1C=O', 104),
  ('COC(=O)c1ccc(C(=O)OC)nc1 [dimethyl pyridine-2,5-dicarboxylate]', 162),
  ('CNc1ccccc1 [N-Methylaniline]', -57),
  ('Nc1ccccc1C(=O)O', 146);

Given item Cc1ccnc2c1NC(=O)c1cccnc1N2C1CC1 , the value recorded as its melting point is 248

Given item Cc1ccccc1[N+](=O)[O-] [2-nitrotoluene] , the value recorded as its melting point is -4

Given item C/C=C/C=O [crotonaldehyde] , the value recorded as its melting point is -76

Given item CC(=O)C1=CCC2(C)C(CCC3C4CCC(=O)C4(C)CCC32)C1 (centres undefined) , the value recorded as its melting point is 153
